# experiment-notes: Cytotoxicity activity against human HepG2 cells assessed by CellTiter-Glo luminescent cell viability assay.
# Format: toxicity, cell-based
# Design: assay stage confirmatory assay, source tissue liver
# experimental-parameters: HepG2 cells, read-out: IC50 relative
The source made the active and inactive calls. No rule for the calls is given here.
Valid outcomes are listed here; reply with one: TRUE (active), FALSE (inactive)

Reference set, count: 5
* Clc1ccc(OCC2CCCNC2)c2ccccc12 (centres undefined) | TRUE
* CCCCNc1nc(-c2cc(C)ccn2)cs1 | TRUE
* Cc1cc(C(=O)Nc2ccc(Cl)cc2F)nc2ccnn12 | FALSE
* Cc1cc(=O)n2nc(Sc3ncc4ccccn34)sc2n1 | TRUE
* O=C1CCc2ccc(OCCCCN3CCN(c4cccc(Cl)c4Cl)CC3)cc2N1 [ARIPIPRAZOLE] | FALSE

(Q) Assay result, entry "COc1cc(-c2ccccc2)sc1C(=O)NC1CC1" — outcome?
(A) TRUE

(Q) Recorded test call requested for "NC1(Cc2ccc(Cl)cc2)CCN(c2ncnc3[nH]ccc23)CC1"
(A) TRUE

(Q) What is the recorded call for this molecule in the test? "CCCOc1cc(S(=O)(=O)Nc2cccc(O)c2)ccc1Cl"
(A) TRUE

(Q) Test call, this molecule: "Cc1ccc(N2N=C(C(=O)NCCN3CCOCC3)S(=O)(=O)c3cc(F)ccc32)cc1"
(A) TRUE

(Q) What call does the record list for O=C(O)c1ccc2cc(-c3ccc(O)c(C45CC6CC(CC(C6)C4)C5)c3)ccc2c1 [O-DEMETHYLATED ADAPALENE] ?
(A) TRUE

(Q) Answer briefly: the call reported for "Cc1ccc(Nc2nc(N3CCN(CCO)CC3)nc3c2cnn3C)cc1Cl" in this assay.
(A) TRUE

----------
# experiment-notes: Cytotoxicity activity against human HepG2 cells assessed by CellTiter-Glo luminescent cell viability assay.
# Assay type: toxicity, cell-based
# Parameters: assay stage confirmatory assay, source tissue liver
# experimental-parameters: HepG2 cells, read-out: IC50 relative
The source made the active and inactive calls. How the calls were made is not given here.
Log the outcome using a class from true (1) (active), false (0) (inactive)

Take a look at these entries with their results.
* N#Cc1c(N)[nH]c2cc(Br)ccc12 | false (0)
* C[C@@H](Oc1cc(-c2cnn(C3CCNCC3)c2)cnc1N)c1c(Cl)ccc(F)c1Cl | true (1)
* Cc1ccc(S(=O)(=O)NCCCNC(=O)c2c3c(nn2C)CCCC3)cc1 | true (1)
* COc1ccc(OCCCN2CCN(S(=O)(=O)c3ccc(S(N)(=O)=O)cc3)CC2)cc1 | false (0)
* CCc1ccc(-c2cc(C(=O)N3C[C@H]4CC[C@@H]3CN(C)C4)[nH]n2)cc1 | false (0)

(Q) What is the recorded call for this molecule in the test? "O=S(=O)(Nc1cccc2cccnc12)c1ccccc1F"
(A) true (1)

(Q) Could you please tell me the result logged for "CN1C(=O)c2cccc3c(S(=O)(=O)NC4CCCCC4)ccc1c23" in this assay?
(A) false (0)

----------
# experiment-notes: Cytotoxicity activity against human HepG2 cells assessed by CellTiter-Glo luminescent cell viability assay.
# Type: toxicity, cell-based
# Parameters: assay stage confirmatory assay, source tissue liver
# experimental-parameters: HepG2 cells, read-out: IC50 relative
Structures can show the parent of a compound that is named as a salt. Activity calls are given as the source filed them. No rule for the calls is given here.
Respond only with the outcome that fits, drawn from true = active, false = inactive

Example entries begin here.
• CN1CCCC(n2nc(Cc3ccc(Cl)cc3)c3ccccc3c2=O)CC1 (stereo not drawn) [AZELASTINE HYDROCHLORIDE] = true
• O=C(Nc1ccc(Cl)c(Cl)c1)Nc1ccc(Cl)c(Cl)c1 = true
• O=C1COc2cc(C(=O)Nc3nc(-c4ccccn4)cs3)ccc2N1 = true
• COc1ccc(NC(=O)Cn2sc3ccccc3c2=O)cc1OC = true
• Cc1ccc(CN2CCN(C3CCNC3)CC2)c(Cl)c1Cl (stereo not drawn) = true
• COc1cc(C(=O)N2CC[C@@H](O)[C@@H](N)C2)cc2nc(-c3cc4ccccc4n3CC3CC3)n(C)c12 = true

(Q) How was "CCN1CCN(CCOc2ccc3ccccc3c2Cl)CC1" classified in this test?
(A) true

(Q) # outcome recorded in this test, key = "Cc1cc(C)cc(C(=O)NOCCCCCC(=O)NO)c1"
(A) true

----------
# experiment-notes: Cytotoxicity activity against human HepG2 cells assessed by CellTiter-Glo luminescent cell viability assay.
# Format: toxicity, cell-based
# Design: assay stage confirmatory assay, source tissue liver
# experimental-parameters: HepG2 cells, read-out: IC50 relative
Active and inactive are the calls of the source. How the calls were made is not given here.
Assign a class; possible classes are active, inactive

Illustrative cases are given below, each with its answer.
* COc1cc2c(N3CCN(C(=O)Nc4ccc(OC(C)C)cc4)CC3)ccnc2cc1OCCCN1CCCCC1 | active
* CCC1(N(C)C)CCN(c2nc(N)c3cc(OC)c(OC)cc3n2)CC1 | active
* COC[C@H]1OC(=O)c2coc3c2[C@@]1(C)C1=C(C3=O)[C@@H]2CCC(=O)[C@@]2(C)C[C@H]1OC(C)=O | active

(Q) // param item: "CCN(Cc1cc(Nc2nc(C)cn3c(-c4cn[nH]c4)cnc23)sn1)C(C)(C)CO" ; yields the recorded call
(A) active

(Q) Answer briefly: the call reported for CC1CC[C@@]2(NC1)O[C@H]1C[C@H]3[C@@H]4CC=C5CC(O)CCC5(C)C4CCC3(C)[C@H]1[C@@H]2C (stereo partly drawn) in this assay.
(A) inactive

(Q) # lookup: test call for COc1cc2nccc(Oc3ccc(NC(=O)C4(C(=O)Nc5ccc(F)cc5)CC4)cc3)c2cc1OC [CABOZANTINIB]
(A) active

(Q) // return assay outcome for "Cc1noc(C)c1CC(=O)Nc1nc(-c2ccc(S(=O)(=O)N(C)C)cc2)cs1"
(A) active

(Q) Just curious, what result did "CCCCc1ccc(-c2cnn3cccnc23)cc1" get here?
(A) inactive

----------
# experiment-notes: Cytotoxicity activity against human HepG2 cells assessed by CellTiter-Glo luminescent cell viability assay.
# Format: toxicity, cell-based
# Set-up: assay stage confirmatory assay, source tissue liver
# experimental-parameters: HepG2 cells, read-out: IC50 relative
Calls of active or inactive are those of the source. The rule behind the calls is not given here.
Please reply with one of these outcomes: active, inactive

• CN(C)c1ccc(C(=O)NCCCCCCC(=O)NO)cc1 = active

(Q) Could you please tell me the result logged for "O=C(c1ccc(Nc2nccc(-c3cc4ccccc4s3)n2)cc1)N1CCC(N2CCCC2)CC1" in this assay?
(A) active

(Q) Entry "COc1cc(-c2nn(CCN3CCC(N(C)C)CC3)c3ncnc(N)c23)ccc1NC(=O)OC(C)(C)C" : call = ?
(A) active

(Q) Hello, I am checking results. What call was entered for "CC[C@@H]([C@H](C)O)n1ncn(-c2ccc(N3CCN(c4ccc(OC[C@@H]5CO[C@@](Cn6cncn6)(c6ccc(F)cc6F)C5)cc4)CC3)cc2)c1=O" ?
(A) inactive

(Q) Write down the call the test reported for this compound. Item: "O=C(NCCN1CCOCC1)C1CCN(c2nn3cc(-c4ccc(F)cc4)nc3s2)CC1"
(A) active

(Q) What did this assay record as the result for "CN(C)CCN(C)CCc1ccc(Cl)c(Cl)c1" ?
(A) inactive

(Q) Called result for "Cc1cc(C)cc(OCCN(C)[C@@H](C)c2nc(N)nc(N(C)C)n2)c1"
(A) active

(Q) Call for entry "N[C@@H](CNC(=O)COc1ccc(Cl)c2ccccc12)C1CC1" :
(A) inactive

(Q) Per the assay record, what outcome was assigned to "Cc1ccc([N+](=O)[O-])cc1S(=O)(=O)N(C)/N=C/c1cnc2ccc(Br)cn12" ?
(A) active

(Q) Look up the recorded call for "CC(C)c1ccc(CN2CCN(C(=O)CN(C)C(=O)c3ccco3)CC2)cc1" in this test.
(A) active

(Q) Record lookup: outcome of this test for "CSc1ccc(NC(=O)Nc2ccc3c(c2)N(S(C)(=O)=O)CC3)cc1" ?
(A) inactive

----------
# experiment-notes: Cytotoxicity activity against human HepG2 cells assessed by CellTiter-Glo luminescent cell viability assay.
# Type: toxicity, cell-based
# Design: assay stage confirmatory assay, source tissue liver
# experimental-parameters: HepG2 cells, read-out: IC50 relative
Calls of active or inactive are those of the source. No rule for the calls is given here.
Reply using exactly one outcome from true (1) = active, false (0) = inactive

A selection of reference data follows.
• N#Cc1ccc(O[C@@H]2c3ccccc3C[C@H]2N2CCC[C@@H](N)C2)c(Cl)c1 = true (1)
• CC(C)N1CC(CN)C2(CCCCC2)C1 (stereo unspecified) = true (1)

(Q) What was the test verdict on "Cc1nc(CCN[C@@H](C)c2ccc(S(N)(=O)=O)cc2)cs1" ?
(A) true (1)

(Q) Which outcome did this test record for the molecule "COc1ccc(-c2cc3nccn3c(Nc3ncccc3C(N)=O)n2)cc1OC" ?
(A) true (1)

----------
# experiment-notes: Cytotoxicity activity against human HepG2 cells assessed by CellTiter-Glo luminescent cell viability assay.
# Assay type: toxicity, cell-based
# Parameters: assay stage confirmatory assay, source tissue liver
# experimental-parameters: HepG2 cells, read-out: IC50 relative
Activity calls are given as the source filed them. The rule behind the calls is not given here.
Hi there, use one of these labels in your reply, thanks! active, inactive

* Cc1ccc(C)c(-c2cc(C(F)(F)F)nn2-c2ccc(S(N)(=O)=O)cc2)c1 | inactive
* CN(C)c1ccc(C(=C2C=CC(=[N+](C)C)C=C2)c2ccc(N(C)C)cc2)cc1 | inactive

(Q) # lookup: test call for CCOC(=O)C1CCCN(C(=O)C(=O)c2c[nH]c3ccccc23)C1 (stereo unspecified)
(A) active

(Q) Short answer needed: outcome of this test for "N#CN=C(NCCCCCCOc1ccc(Cl)cc1)Nc1ccncc1" ?
(A) active

(Q) Lab log entry: "CN1CCC(COc2cnc(-c3cccc(Cn4nc(-c5cccc(C#N)c5)ccc4=O)c3)nc2)CC1" — outcome as called in the assay?
(A) active

(Q) What call does the record list for "COc1ccc(C(=O)N2CCN(Cc3noc(-c4ccc(F)cc4)n3)CC2)cc1" ?
(A) active

(Q) Per the assay record, what outcome was assigned to CCC(C)NC(=O)COc1ccc(-c2nc(C(C)C)no2)cc1 (stereo unspecified) ?
(A) active

(Q) I would be grateful if you could indicate the recorded call for "NCCNS(=O)(=O)c1cccc2cnccc12" .
(A) inactive

(Q) What classification did "Cc1cc2c(C(C)C)c(O)c(O)c(C=O)c2c(O)c1-c1c(C)cc2c(C(C)C)c(O)c(O)c(C=O)c2c1O" end up with in this test?
(A) active

(Q) Please indicate how the test categorized "O=C(NC1CCCC1)N1CC(Oc2ccc(-c3noc(-c4cccnc4)n3)cc2)C1" .
(A) active

(Q) Record request — test call for "CC[C@H]1c2ccsc2CCN1C(=O)c1cc(OC)cc(OC)c1"
(A) active

(Q) Please let me know the test result on file for "O=C1NC(=O)C(c2cnc3ccccn23)=C1c1cn2c3c(cc(F)cc13)CN(C(=O)N1CCCCC1)CC2" .
(A) active

(Q) Record request — test call for "NNc1ncnc2ccc(Br)cc12"
(A) active
